Value source: PubChem BioAssay AID2060513

Tested on: 299254-011-R-J1-PDC complex spheroids viability;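 note: spheroids exposed to the agents for seven days before readout; percent viability relative to DMSO vehicle control wells = 100%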
Experiment: Anticancer human tumor 299254-011-R-J1-PDC patient-derived melanoma cell line growth inhibition [GQUAD]
Conditions: second compound 0.1 µM; first compound 1 µM; hits give low values
viability, T/C values, listed per item
Number only, in %; omit the unit.

Some entries whose results are on file:
COc1ccc([C@@H](O)c2cc(-c3ncnc4cc(N5CCOCC5)ccc34)c(F)cc2Cl)nn1 + Cc1[nH]c2ccc(F)cc2c1-c1nc2c3cccnc3c3ncccc3c2[nH]1; 86.9
O=c1[nH]cc(F)c(=O)[nH]1 + CN(C)c1ccc(Nc2c3ccc(NC(=O)CCN4CCCC4)cc3nc3cc(NC(=O)CCN4CCCC4)ccc23)cc1; 92.2
C=CCn1c(=O)c2cnc(Nc3ccc(N4CCN(C)CC4)cc3)nc2n1-c1cccc(C(C)(C)O)n1 + Cc1cnc(CNC(=O)c2c(=O)c3ccc(N4CCCN(C)CC4)nc3n3c2sc2ccccc23)cn1; 64.2

Name the recorded viability, T/C of the item CC1COCCN1c1cc(C2(S(C)(=N)=O)CC2)nc(-c2ccnc3[nH]ccc23)n1 (stereo not given) + CN(C)c1ccc(Nc2c3ccc(NC(=O)CCN4CCCC4)cc3nc3cc(NC(=O)CCN4CCCC4)ccc23)cc1 in your answer.
77.5

Name the recorded viability, T/C of the item CC1COCCN1c1cc(C2(S(C)(=N)=O)CC2)nc(-c2ccnc3[nH]ccc23)n1 (stereo not given) + Cc1cnc(CNC(=O)c2c(=O)c3ccc(N4CCCN(C)CC4)nc3n3c2sc2ccccc23)cn1 in your answer.
79.4
